system: A2780; test: Inhibition of A2780 cell growth; assay type: functional, cell-based; settings: Homo sapiens
observable: IC50 (nM)

Study these solved cases before continuing.
> print(dat)
                                   molecule  observable  reported
1  CN(C)CCNc1ccc(NCCN2CCCC(Cl)C2)c2c1C(=O)c1c(O)ccc(O)c1C2=O (stereo not given)        IC50         9
2  O=C1c2c(O)ccc(O)c2C(=O)c2c(NCCN3CCCCC3CCl)ccc(NCCN3CCCCC3CCl)c21 (stereo not given)        IC50       178

A = O=C1c2c(O)ccc(O)c2C(=O)c2c(NCCN3CCCC(CO)C3)ccc(NCCN3CCCC(CO)C3)c21 (stereo not given)
B = CN(C)CCNc1ccc(NCCN2CCCCC2CCl)c2c1C(=O)c1c(O)ccc(O)c1C2=O (stereo not given)
Exam item: Field: lower recorded IC50 (choose A or B ) Respond with the label that goes with your answer.
Marked response: B

Value source: ChEMBL document CHEMBL1138880
